src = ChEMBL document CHEMBL3877242

// reported log10 of IC50 per item
- ASSAY_PROTOCOL: Cytotoxicity against human HeLa cells assessed as reduction in cell viability after 48 hrs by MTT assay
- Format: functional, cell-based
Lab note - IC50 converted to log10 from values in µM.

Solved entries:
COC(=O)O[C@H]1CC[C@]2(C)[C@H]3C[C@@H](O)[C@@H]4[C@@H](/C(C)=C/CCC(C)(C)O)CC[C@@]4(C)[C@]3(C)CC[C@H]2C1(C)C 1.20
COC(=O)O[C@H]1CC[C@]2(C)[C@H]3C[C@@H](O)[C@@H]4[C@@H]([C@@](C)(CCC=C(C)C)OC)CC[C@@]4(C)[C@]3(C)CC[C@H]2C1(C)C 1.48
CO[C@H]1CC[C@]2(C)[C@H]3C[C@@H](OC)[C@@H]4[C@@H]([C@@](C)(CCCC(C)(C)OC)OC)CC[C@@]4(C)[C@]3(C)CC[C@H]2C1(C)C 1.34
COC(=O)O[C@H]1CC[C@]2(C)[C@H]3C[C@@H](O)[C@@H]4[C@@H]([C@@](C)(CCCC(C)(C)OC(=O)OC)OC)CC[C@@]4(C)[C@]3(C)CC[C@H]2C1(C)C 1.58

Entry under test: "CO[C@H]1CC[C@]2(C)[C@H]3C[C@@H](OC)[C@@H]4[C@@H](/C(C)=C/CCC(C)(C)O)CC[C@@]4(C)[C@]3(C)CC[C@H]2C1(C)C" . Its log10 of IC50 was 0.08

* * *

- ASSAY_PROTOCOL: Cytotoxicity against human DU145 cells assessed as reduction in cell viability after 48 hrs by MTT assay
- Type: functional, cell-based
- DETAILS: DU-145, 48 h
OUTCOME_MEASURE: IC50 (µM)
Give the value, in units of µM, as a plain number.

Solved entries:
COC(C)(C)CCC[C@@](C)(O)[C@H]1CC[C@]2(C)[C@@H]1[C@H](O)C[C@@H]1[C@@]3(C)CC[C@H](O)C(C)(C)[C@@H]3CC[C@]12C 5.4
COC(=O)OC(C)(C)CCC[C@@](C)(O)[C@H]1CC[C@]2(C)[C@@H]1[C@H](O)C[C@@H]1[C@@]3(C)CC[C@H](O)C(C)(C)[C@@H]3CC[C@]12C 27.2

Field: next molecule
Entry under test: "CO[C@](C)(CCC=C(C)C)[C@H]1CC[C@]2(C)[C@@H]1[C@H](O)C[C@@H]1[C@@]3(C)CC[C@H](O)C(C)(C)[C@@H]3CC[C@]12C" . Its IC50 was 2.6

* * *

- ASSAY_PROTOCOL: Cytotoxicity against human DU145 cells assessed as reduction in cell viability after 48 hrs by MTT assay
- Format: functional, cell-based
- DETAILS: DU-145, 48 h
// reported IC50 per item

Solved entries:
MOLECULE	IC50
COC(=O)O[C@H]1CC[C@]2(C)[C@H]3C[C@@H](OC(=O)OC)[C@@H]4[C@@H](/C(C)=C/CCC(C)(C)OC(=O)OC)CC[C@@]4(C)[C@]3(C)CC[C@H]2C1(C)C	80.3 µM
COC(=O)O[C@H]1CC[C@]2(C)[C@H]3C[C@@H](O)[C@@H]4[C@@H]([C@@](C)(CCCC(C)(C)OC(=O)OC)OC)CC[C@@]4(C)[C@]3(C)CC[C@H]2C1(C)C	32.6 µM
COC(=O)O[C@H]1CC[C@]2(C)[C@H]3C[C@@H](O)[C@@H]4[C@@H]([C@@](C)(CCCC(C)(C)O)OC)CC[C@@]4(C)[C@]3(C)CC[C@H]2C1(C)C	3.9 µM
COC(=O)O[C@H]1CC[C@]2(C)[C@H]3C[C@@H](O)[C@@H]4[C@@H]([C@](C)(O)CCCC(C)(C)OC(=O)OC)CC[C@@]4(C)[C@]3(C)CC[C@H]2C1(C)C	29.2 µM
CO[C@H]1CC[C@]2(C)[C@H]3C[C@@H](OC)[C@@H]4[C@@H](/C(C)=C/CCC(C)(C)O)CC[C@@]4(C)[C@]3(C)CC[C@H]2C1(C)C	12.1 µM
O=c1[nH]cc(F)c(=O)[nH]1 [FLUOROURACIL]	26.1 µM

Entry under test: "COC(=O)O[C@H]1CC[C@]2(C)[C@H]3C[C@@H](O)[C@@H]4[C@@H]([C@@](C)(CCC=C(C)C)OC)CC[C@@]4(C)[C@]3(C)CC[C@H]2C1(C)C" . Its IC50 was 41.1 µM

Entry under test: "COC(=O)O[C@H]1CC[C@]2(C)[C@H]3C[C@@H](O)[C@@H]4[C@@H]([C@](C)(O)CCC=C(C)C)CC[C@@]4(C)[C@]3(C)CC[C@H]2C1(C)C" . Its IC50 was 1.2 µM

Entry under test: "COC(=O)O[C@H]1CC[C@]2(C)[C@H]3C[C@@H](O)[C@@H]4[C@@H](/C(C)=C/CCC(C)(C)O)CC[C@@]4(C)[C@]3(C)CC[C@H]2C1(C)C" . Its IC50 was 10.9 µM
